Catalogue of inhibition readings, one per entry.
# experimental.target: Insulin-degrading enzyme (Homo sapiens)
# protocol.text: cellular IDE Abeta-cleavage inhibition – fluorescence polarization, HEK cells, FAbetaB substrate, primary screen (AID 434962);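 also: IDE supplied by intact live HEK cells; FP after avidin binding of uncleaved biotin substrate so inhibition keeps polarization high; 0% = DMSO wells and 100% = 60 µM reference IDE inhibitor Ii1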
# condition.notes: at 5.59 µM, stronger effect = higher value
The campaign covered roughly 320,000 compounds. About 1,300 (0.41%) were called active. The sample holds actives, similar compounds and a random draw of the others, so the mix is not that of the screen.
property.label: inhibition (%)

- structure.string: "CCN(CC)C(=O)CSC(Nc1cccc(F)c1)=C(C#N)C#N"
  experimental.target: "Insulin-degrading enzyme (Homo sapiens)"
  experimental.result: 31.4
- structure.string: "COC(=O)c1sccc1-n1cccc1C(=O)C(=O)N1CCCCC1"
  experimental.target: "Insulin-degrading enzyme (Homo sapiens)"
  experimental.result: -0.4
- structure.string: "COc1cc(C(=O)Nc2cc(C(F)(F)F)ccc2-n2cncn2)cc(OC)c1OC"
  experimental.target: "Insulin-degrading enzyme (Homo sapiens)"
  experimental.result: -10.1
- structure.string: "CCN(CC)C(=O)C(=O)Nc1cccc(Br)c1"
  experimental.target: "Insulin-degrading enzyme (Homo sapiens)"
  experimental.result: 1.91
- structure.string: "COCCN(Cc1nc(-c2ccc(C(F)(F)F)cc2)no1)C(C)C"
  experimental.target: "Insulin-degrading enzyme (Homo sapiens)"
  experimental.result: 1.82
- structure.string: "CCCCc1ccc(NC(=O)NCc2cccnc2)cc1"
  experimental.target: "Insulin-degrading enzyme (Homo sapiens)"
  experimental.result: 4.26
- structure.string: "Nc1nc(Br)c2ccccc2c1-c1ccc(F)cc1"
  experimental.target: "Insulin-degrading enzyme (Homo sapiens)"
  experimental.result: -4.68
- structure.string: "Cc1ccccc1CSc1nnc(-c2ccccc2)c(=O)[nH]1"
  experimental.target: "Insulin-degrading enzyme (Homo sapiens)"
  experimental.result: 0.38
- structure.string: "Clc1ccccc1-c1cc(COc2ccc3ccccc3c2)no1"
  experimental.target: "Insulin-degrading enzyme (Homo sapiens)"
  experimental.result: 3.18
- structure.string: "CCOc1ccc(NC(=O)CN(C)CC(=O)Nc2cccc(Cl)c2C)cc1OCC"
  experimental.target: "Insulin-degrading enzyme (Homo sapiens)"
  experimental.result: 1.24
- structure.string: "O=C(Nc1ccccc1)N1CCN(C2c3ccccc3-c3ccccc32)CC1"
  experimental.target: "Insulin-degrading enzyme (Homo sapiens)"
  experimental.result: 0.11
